Data provenance: patent US20210253725A1

Biological target: T1, CD134 expressed on the cell surface of HT1080_OX40 cells (human, UniProt P43489 29-277); note: test concentration or dose not given here
T1 sequence (looked up): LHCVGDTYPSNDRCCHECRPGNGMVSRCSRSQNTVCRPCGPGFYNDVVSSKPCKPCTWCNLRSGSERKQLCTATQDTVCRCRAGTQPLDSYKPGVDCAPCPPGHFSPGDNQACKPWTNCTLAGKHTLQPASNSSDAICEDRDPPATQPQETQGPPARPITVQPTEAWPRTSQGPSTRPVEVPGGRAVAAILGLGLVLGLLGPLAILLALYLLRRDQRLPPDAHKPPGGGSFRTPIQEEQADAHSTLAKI
Assay: cell-based or functional assay
measurement.type: Functional assay Cross-linked by F(ab′)2 fragment IL-8 (abs. corr.)
Please state the figure in abs. corr.; there is no need to write the unit.

>>> reported_value("P018.S.04.A.D06 (antibody, V domains shown, V regions on human Ig constant parts; also called AB134_9) VH: QSLEESGGDLVKPGASLTLTCTASGFSFSSSYYMCWVRQAPGKGLEWIACIYTGDGASYYASWAKGRFTISKPSSTTVTLQVTSLTAADTATYFCGRGEYDNDWGFGLWGPGTLVTVSS VL: AYDMTQTPASVEVPVGGTVTINCQASEDISSYLSWYQQKPGQPPELLIYYASNLASGVSSRFKGSRSGTEFTLTISDLESADAATYYCQCSNYGGSWTFGGGTEVVVK")
2.3

input: Quick one: Functional assay Cross-linked by F(ab′)2 fragment IL-8 for P018.S.11.A.C04 (antibody, V domains shown, V regions on human Ig constant parts; also called AB134_29) VH: QSVEESGGRLVTPGTPLTLTCTVSGFSLGSYPMIWVRQAPGKGLEWIGYIDPGRGTTLYASWARGLFTISKTSTTVDLAMTSPTAADTATYFCARSYPGDGAGDLWGQGTLVTVSS VL: DVVMTQTPASVSEPVGGTVTIKCQASESISNYFSWYQQKPGQPPKLLIYGASTLESGVSSRFKGSGSGTDFTLTISDLESADAATYYCQCTYYGSGDVGGAFGGGTEVVVK ?
output: 2.19
